B1: glmS ribozyme (parent)
chain: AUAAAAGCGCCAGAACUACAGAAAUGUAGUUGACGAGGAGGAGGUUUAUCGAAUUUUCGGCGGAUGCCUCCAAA

Variants of: B1
experiment-description: kcat; higher = faster cleavage; RNA array
assay-conditions: with glucosamine-6-phosphate
Fewer inactive variants are shown than the library holds.
Hi, to clarify the labels: true (1) covers kcat from 0.0002 s⁻¹ upward, false (0) covers anything below 0.0002 s⁻¹.

{"sequence-string": "AUAAAAGCGCCAGAACUACAGAAAUGUAGUUGACGAGGACGAGGUUUAUCGAAUCUUCGGCGGAUGCCUCCAAA", "group": "true (1)"}
{"sequence-string": "AUAAAAGCGCCAGAACUACAGAAAUGUAGUGGACGAGGAGGAGUUUUAUCGAAUUUUCGGCGGAUGCCUCCAAA", "group": "true (1)"}
{"sequence-string": "AUAAAAGCGCCAGAACUACAGAAAUGUAGUUGACGAGGUGGAGGUUUAUCGAAUUUUCGACGGAUGCCUCCAAA", "group": "false (0)"}
{"sequence-string": "AUAAAAGCGCCAGAACUACAGAAAUGUAGUUGACGAGGAGGAGGUUUAUCGAAUAUUCGGCGGAUGCCUGCAAA", "group": "false (0)"}
{"sequence-string": "AUAAAAGCGCCAGGACUACAGAAAUGUAGUUGACGAGGAGGAGGUUUAUCGAACUUUCGGCGGAUGCCUCCAAA", "group": "true (1)"}
{"sequence-string": "AUAAAAGCGCCAGAACUACAGAAAUGUAGUUGACGAGGAGGAGGUUUUUCGAAUUUGCGGCGGAUGCCUCCAAA", "group": "false (0)"}
{"sequence-string": "AUAAAAGCGCCAGAACUACAGAAAUGUAGUUGACGAGGAGGAGGUUUAUCGAAUUUUCGGCGAAUGCUUCCAAA", "group": "false (0)"}
{"sequence-string": "AUAAAAGCGCCAUAACUACAGAAAUGUAGUUGACGAGGAGGAGGUUUAUCGAAUUUUUGGCGGAUGGCUCCAAA", "group": "false (0)"}
{"sequence-string": "AUAAAAGCGCCAGGACUACAGAAAUGUAGUUGACGAGGAGGAGGGUUAUCGAAUUUUCGGCGGAUGCCUCCAAA", "group": "true (1)"}
{"sequence-string": "AUAAAAGCGCCAGAACUACAGAAAUGUAGUUGACGAGGAGGAGGUUUAUCUAAUUUUUGGCGGAUGCCUCCAAA", "group": "false (0)"}
{"sequence-string": "AUAAAAGCGCCAGAACUACAGAAAUGUAGUUGACGAGGAGGAGGGUUAUCGAAUUUUCGGCGGAGGCCUCCAAA", "group": "true (1)"}
{"sequence-string": "AUAAAAGCGCCGGAACUACAGAAAUGUAGUUGACGAGGAGGAGGUUGAUCGAAUUUUCGGCGGAUGCCUCCAAA", "group": "true (1)"}
{"sequence-string": "AUAAAAGCGCCAGAACUACAGAAAUGUAGGUGACGAGGAGGAGGUUUAUCGACUUUUCGGCGGAUGCCUCCAAA", "group": "true (1)"}
{"sequence-string": "AUAAAAGCGCCAGAACUACAGAAAUGUAGUAGACGAGGAGGAGGUUUAUCGAAUUUUGGGCCGCUGACUCCAAA", "group": "false (0)"}
{"sequence-string": "AUAAAAGCGCCAGUACUACAGAAAUGUAGUUGACGAGGAGGAGGAUUAUCGAAUUUUCGGCGGAUGCCUCCAAA", "group": "true (1)"}
{"sequence-string": "AUAAAAGCGCCAGAACUACAGAAAUGUAGGUGACGAGGAGGAGGUUUAUCGAAUUUUAGGCGGAUGCCUCCAAA", "group": "true (1)"}
{"sequence-string": "AUAAAAGCGCCAGAACUACAGAAAUGUAGUUGACGAAGAGGAGGUUUAUCGAAUUUUCGGCGGAGGCCUCCAAA", "group": "true (1)"}
{"sequence-string": "AUAAAAGCGUCAGAGCUACAGAAAUGUAGUUGACGAGGAGGAGGUUUAUCGAAUUUUCGGCGGAUGCUUCCAAA", "group": "false (0)"}
{"sequence-string": "AUAAAAGCGCCAGAACUACAGAAAUGUAGUUGACGAGGAGGUGGUUAAUCGAAUUUUCGGCGGAUGCCUCCAAA", "group": "false (0)"}
{"sequence-string": "AUAAAAGCGCCAGAACUACAGAAAUGUAGUUGACGAGGGGGAGCUUUAUCGAAUUUUCGGCGGAUGCCUCCAAA", "group": "true (1)"}
{"sequence-string": "AUAAAAGCGCCAGAACUACAGAAAUGUAGUUGACGAGGAGGAGGUUUUUCGAAUGUUCGGCGGAUGCCUCCAAA", "group": "true (1)"}
{"sequence-string": "AUAAAAGCGCCAGAACUACAGAAAUGUAGUUGACGAGGAUGAGGUUUAUCGAAUUUUCGGCGGAUGCCUCUAAA", "group": "true (1)"}
{"sequence-string": "AUAAAAGCGCCAGAACUACAGAAAUGUAGUUGACGAGGAGGAGGUUCAUCGAAUUUUCGGCGGAUGCCUGCAAA", "group": "false (0)"}
{"sequence-string": "AUAAAAGCGCCAGAACUACAGAAAUGUAGUUGACGAGAAGGAGGUUUAUCGAAUUUUCGGCGGAUGACUCCAAA", "group": "false (0)"}
{"sequence-string": "AUAAAAGCGCCAGAACUACAGAAAUGUAGUUGACGAGGAGGAGGUUUAUCGAAUUUUCGGUAGAUGCCUCCAAA", "group": "false (0)"}
{"sequence-string": "AUAAAAGCGCCAGAACUACAGAAAUGUAGUUGACGAGGACGAGGUUUAUCGAAUUUUCGGCGGAUGCCUGCAAA", "group": "false (0)"}
{"sequence-string": "AUAAAAGCGCCAGGACUACAGAAAUGUAGUUGACGAGGAGGAGGUUUAUCGAAUUUUCGGAGGAUGCCUCCAAA", "group": "false (0)"}
{"sequence-string": "AUAAAAGCGCCAGAACUACAGAAAUGUAGUUGACGAGGAGGAGGUUUGUCGAAUUUUCGGCGAAUGCCUCCAAA", "group": "false (0)"}
{"sequence-string": "AUAAAAGCGCCAGCACUACAGAAAUGUAGUUGCCGAGGAGGAGGUUUAUCGAAUUUUCGGCGGAUGCCUCCAAA", "group": "false (0)"}
{"sequence-string": "AUAAAAGCGCCAGACCUACAGAAAUGUAGCUGACGAGGAGGAGGUUUAUCGAAUUUUCGGCGGAUGCCUCCAAA", "group": "true (1)"}
{"sequence-string": "AUAAAAGCGCCAGAACUACAGAAAUGUAGUUGACGAGGAGGAGGUUUUUCGAAUCUUCGGCGGAUGCCUCCAAA", "group": "true (1)"}
{"sequence-string": "AUAAAAGCGCCAAAACUACAGAAAUGUAGUUGACGAGGAGGAGGUUUAUCGAAUUUUCGGCGGAUGCCGCCAAA", "group": "false (0)"}
{"sequence-string": "AUAAAAGCGCCAGCACUACAGAAAUGUAGUUGACGAGGAGGAGGUUUAUCGAAUUUUCGGCGGAGGCCUUCAAA", "group": "true (1)"}
{"sequence-string": "AUAAAAGCGCCAGCACUACAGAAAUGUAGUUGACGAGGAGGAGGUUUAUCGAUUUUUCGGCGGAUGCCUCCAAA", "group": "true (1)"}
{"sequence-string": "AUAAAAGCGCCAGAACUACAGAAAUGUAGUUGACGAGGAGGAGGUUUAUCGAAUUUUCGGCGGAUGCAUCAAAA", "group": "false (0)"}
{"sequence-string": "AUAAAAGCGCCAGCAAUACAGAAAUGUAGUUGACGAGGAGGAGGUUUAUCGAAUUUUCGGCGGAUGCCUCCAAA", "group": "false (0)"}
{"sequence-string": "AUAAAAGCGCCAGAACUACAGAAAUGUAGUUGACGAGGAAGACGUUUAUCGAAUUUUCGGCGGAUGCCUCCAAA", "group": "false (0)"}
{"sequence-string": "AUAAAAGCGCCAGGACUACAGAAAUGUACUUGACGAGGAGGAGGUUUAUCGAAUUAUCGGCGGAUGCCUCCAAA", "group": "true (1)"}
{"sequence-string": "AUAAAAGCGCCAGAGCUACAGAAAUGUAGUUGACGAGGAGGAGGUUUAUCGACUUUUCGGCGGAUGCCUCCAAA", "group": "true (1)"}
{"sequence-string": "AUAAAAGCGCCAGAACUACAGAAAUGUAGUUGACGAGGAGGAGGUUUAUCGAAUUAUAGGCGGAUGCCUCCAAA", "group": "true (1)"}
{"sequence-string": "AUAAAAGCGCCAGAACUACAGAAAUGUAGUUGACGAAGAGGAGGUUGAUCGAAUGUUCGGCGGAUGCCUCCAAA", "group": "true (1)"}
{"sequence-string": "AUAAAAGCGCCAGAACUACAGAAAUGUAGUUGACGAGGGGGAGGUUUAUCGAAUUUUCGGCGGUUGCCUCCAAA", "group": "true (1)"}
{"sequence-string": "AUAAAAGCGCCAGAACUACAGAAAUGUAGUUGACGAGGAGGUGGUUUAUCGAAUUUUCGGCGGAUGACUCCAAA", "group": "true (1)"}
{"sequence-string": "AUAAACGCGCCAGAACUACAGAAAUGUAGUUGACGAGGAGGAGGUUUAUCGAAUUUUCGGCGGAAGCCUCCAAA", "group": "false (0)"}
{"sequence-string": "AUAAAAGCGCCAGAACUACAGAAAUGUAGUUAACGAGGAGGAGGUUUAUCGAAUUUUCGGCGGAUGCCUACAAA", "group": "false (0)"}
